Target: T1, TLR8 I403S (human, UniProt Q9NR97 27-827, I403S)
T1 sequence: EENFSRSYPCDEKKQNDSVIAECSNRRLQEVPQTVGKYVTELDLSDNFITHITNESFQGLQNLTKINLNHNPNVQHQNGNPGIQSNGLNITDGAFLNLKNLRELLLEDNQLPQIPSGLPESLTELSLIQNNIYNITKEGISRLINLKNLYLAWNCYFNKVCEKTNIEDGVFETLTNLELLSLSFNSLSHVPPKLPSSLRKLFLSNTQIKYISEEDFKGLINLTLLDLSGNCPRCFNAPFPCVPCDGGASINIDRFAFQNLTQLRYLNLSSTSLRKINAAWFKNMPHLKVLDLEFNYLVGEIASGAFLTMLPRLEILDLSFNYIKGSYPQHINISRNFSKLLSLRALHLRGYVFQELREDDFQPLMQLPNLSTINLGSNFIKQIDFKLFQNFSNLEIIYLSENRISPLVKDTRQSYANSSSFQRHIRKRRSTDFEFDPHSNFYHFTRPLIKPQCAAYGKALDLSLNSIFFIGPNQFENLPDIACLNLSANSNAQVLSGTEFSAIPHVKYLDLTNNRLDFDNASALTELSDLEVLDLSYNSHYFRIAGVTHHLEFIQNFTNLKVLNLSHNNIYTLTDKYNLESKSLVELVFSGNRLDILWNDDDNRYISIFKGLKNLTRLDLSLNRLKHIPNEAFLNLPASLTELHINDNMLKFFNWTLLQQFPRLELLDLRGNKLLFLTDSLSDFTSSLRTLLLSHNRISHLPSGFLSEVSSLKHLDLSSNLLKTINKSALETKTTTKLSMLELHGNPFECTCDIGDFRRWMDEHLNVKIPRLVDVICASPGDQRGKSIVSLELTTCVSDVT
Assay: SPR; mean computed from runs 7.6±0.5, 9.7±0.9, 7.5±0.3; SPR with recombinant TLR7/TLR8; buffer, pH and temperature not in the material
Details: protein: recombinant; chain copies: 2; single-stranded
pKd: −log10 of the molar value.
ENDPOINT_LABEL: pKd

BINDER | OBS_VALUE
GAA (XNA, 2'-OMe G1, RNA A2 A3; phosphorothioate linkages, stereo-random) [mGrArA PS] | 5.08
